Where do these numbers come from? They come from paper PMC10143232.

Lab note: IC50 readings collected with Thymidine phosphorylase (TP) (Escherichia coli) for the following compounds.
Please state the figure in µM; there is no need to write the unit.

Examples with answers:
- COC(=O)C1=C(C)NC(=O)NC1c1ccc(N(C)C)cc1 (centres unmarked): 350
- COC(=O)C1=C(C)NC(=O)NC1c1ccc(OC)cc1F (centres unmarked): 397
- COC(=O)C1=C(C)NC(=O)NC1c1cc(OC)c(O)c(OC)c1 (centres unmarked): 397
- COC(=O)C1=C(C)NC(=O)NC1c1cccc(OC)c1OC (centres unmarked): 415

From here, focus on the item given below.
Which IC50 is listed for COC(=O)C1=C(C)NC(=O)NC1CC(C)C (centres unmarked) ?
345

* * *

Biological target: UniProt P07650
MEASURE_NAME: pIC50
Reminder that pIC50 is minus the log10 of a molar concentration.

* CCOc1ccc(C2NC(=O)NC(C)=C2C(=O)OC)cc1 (stereo not shown) | 3.41

Quick one: pIC50 of COC(=O)C1=C(C)NC(=O)NC1c1ccc([N+](=O)[O-])cc1 (stereo not shown) ?
3.52

Suppose we examine the compound COC(=O)C1=C(C)NC(=O)NC1c1ccc(C)s1 (stereo not shown) ; what pIC50 value has been reported?
3.31

Give the measured pIC50 of COC(=O)C1=C(C)NC(=O)NC1c1ccccc1 (stereo not shown) .
3.50

I have this compound here, COC(=O)C1=C(C)NC(=O)NC1c1cc(Br)c(OC)c(OC)c1 (stereo not shown) , and I need its recorded pIC50.
3.40

Which measured pIC50 value corresponds to COC(=O)C1=C(C)NC(=O)NC1c1ccc(O)c(Cl)c1 (stereo not shown) ?
3.39

* * *

Molecular target: Thymidine phosphorylase (TP) (Escherichia coli, UniProt P07650)
Construct: purchased Sigma Aldrich, USA
Sequence (P07650 whole entry): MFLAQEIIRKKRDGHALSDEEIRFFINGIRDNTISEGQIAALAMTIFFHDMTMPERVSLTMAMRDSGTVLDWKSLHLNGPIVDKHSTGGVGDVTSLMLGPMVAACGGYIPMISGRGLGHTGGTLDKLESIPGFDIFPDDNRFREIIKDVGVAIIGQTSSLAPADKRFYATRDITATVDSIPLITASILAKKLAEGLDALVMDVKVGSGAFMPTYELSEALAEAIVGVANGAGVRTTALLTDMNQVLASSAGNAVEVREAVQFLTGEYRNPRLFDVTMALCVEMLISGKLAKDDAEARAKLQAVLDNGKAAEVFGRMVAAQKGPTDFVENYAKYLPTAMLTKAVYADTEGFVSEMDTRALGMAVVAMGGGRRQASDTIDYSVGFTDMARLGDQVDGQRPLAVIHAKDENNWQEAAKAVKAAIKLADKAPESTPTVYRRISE
Assay: Thymidine phosphorylase inhibition assay (spectrophotometric, 290 nm)
Assay type: biochemical, E. coli
Conditions: E. coli TP; inactive = less than 50% inhibition
Protocol: Thymidine phosphorylase (source: E. coli, EC Number 2.4.2.4), thymidine (substrate), and potassium phosphate monobasic (as buffer) were acquired from Sigma Aldrich, USA. […] Dimethylsulfoxide (DMSO), used as a solvent, was obtained from Fisher Scientific, Schwerte, Germany. Reaction was performed in 96-well plates and in triplicates. […]
MEASURE_NAME: TP inhibitory activity (in words)

- COC(=O)C1=C(C)NC(=O)NC1c1c(Cl)cccc1Cl (stereo not shown) [Compound 18]: inactive
- COC(=O)C1=C(C)NC(=O)NC1c1ccccc1Cl (stereo not shown) [Compound 6]: inactive
- COC(=O)C1=C(C)NC(=O)NC1c1ccc(Cl)cc1Cl (stereo not shown) [Compound 39]: inactive

* * *

A short record of pIC50 observed with Thymidine phosphorylase (TP) (Escherichia coli, UniProt P07650) follows.
Conceptually, pIC50 converts a concentration in mol/L into minus its log10.

Examples with answers:
- COC(=O)C1=C(C)NC(=O)NC1c1ccc(C)o1 (stereo not shown): 3.41
- COC(=O)C1=C(C)NC(=O)NC1c1ccc(Cl)cc1 (stereo not shown): 3.35
- COC(=O)C1=C(C)NC(=O)NC1c1ccc(C(F)(F)F)cc1 (stereo not shown): 3.49

Please turn your attention to the following entry.
Lab note: need pIC50 for COC(=O)C1=C(C)NC(=O)NC1c1ccc(OC)c(OC)c1 (stereo not shown) on Thymidine phosphorylase (TP) (Escherichia coli, UniProt P07650), anyone have it?
3.37
